- Assay target: hPDE10A2 (Homo sapiens)
- Test protocol: biochemical
- Condition label: read-out: hPDE10A2 or rPDE10A2 Emax, human clone; 60 nM cAMP substrate
Readout label: Emax (%)
Numeric answer only, unit % assumed.

Some compounds with known Emax results, for comparison:
Measured Emax, COc1ccc(CN2CC[C@@H](C)[C@H](c3cc(C(F)F)nc4ncnn34)C2)c(OC)c1.Cl [Compound 45] : 37

Measured Emax, CC(C)CN1CC[C@@H](C)[C@H](c2cc(C(F)F)nc3ncnn23)C1 [Compound 29] : 3

Measured Emax, Cc1cc([C@H](C)N2CC[C@@H](C)[C@H](c3cc(C(F)F)nc4ncnn34)C2)cc(Cl)n1 (single isomer, unassigned) [Compound 4] : 88

Attention now shifts to the item below.
Measured Emax, C[C@H]1CCN(Cc2cc3ccccc3o2)C[C@@H]1c1cc(C(F)F)nc2ncnn12.Cl [Compound 55] : 12

###

- Assay target: Human recombinant PDE2A (hPDE2A) (Homo sapiens)
- Construct: made in house; host or cells: Sf9 insect cells (baculovirus)
- Test protocol: In vitro assay PDE2A (SPA, 3H-cGMP)
- Format: biochemical
Readout label: log10 of IC50 (log10 of the value in nM)
Note the log scale: values are log10 of IC50 expressed in nM.

Measured log10 of IC50, C[C@@H]1CCN([C@H](C)c2ccc(C(F)(F)F)cc2)C[C@H]1c1cc(C(F)F)nc2ncnn12 (relative stereo) : 2.01

Measured log10 of IC50, Cc1cc(CN2CC[C@@H](C)[C@H](c3cc(C(F)F)nc4ncnn34)C2)ccn1.Cl : 1.98

Measured log10 of IC50, Cc1cc(CN2CC[C@@H](C)[C@H](c3cc(C(F)F)nc4ncnn34)C2)cc(C)n1.Cl : 1.35

Measured log10 of IC50, Cc1cc(CN2CC[C@H](C)[C@@H](c3cc(C(F)F)nc4ncnn34)C2)cc(Cl)n1.Cl : 3.59

Measured log10 of IC50, C[C@@H]1CCN(Cc2cccc(OC(F)F)c2)C[C@H]1c1cc(C(F)F)nc2ncnn12 : 2.75

Measured log10 of IC50, Cc1cc(CN2CC[C@@H](C)[C@H](c3cc(C(F)F)nc4ncnn34)C2)cc(C)c1Cl.Cl : 1.75

Further cases:
Measured log10 of IC50, Cl.FC(F)c1cc([C@H]2CC[C@H]3CC[C@@H]2N3Cc2ccc(Cl)c(Cl)c2)n2ncnc2n1 : 2.02

###

- Assay target: Human recombinant PDE2A (hPDE2A) (Homo sapiens)
- Construct: made in house; host or cells: Sf9 insect cells (baculovirus)
- Test protocol: In vitro assay PDE2A (SPA, 3H-cGMP)
- Type: biochemical
- Condition label: 10 μM cGMP substrate
Readout label: Emax (%)
Numeric answer only, unit % assumed.

Some compounds with known Emax results, for comparison:
Measured Emax, C[C@H]1CCN(Cc2cc3ccccc3o2)C[C@@H]1c1cc(C(F)F)nc2ncnn12.Cl : 25

Measured Emax, C[C@@H]1CCN(Cc2cccc(C#N)n2)C[C@H]1c1cc(C(F)F)nc2ncnn12 : 92

Further cases:
Measured Emax, C[C@@H]1CCN(Cc2cc3ccccc3cn2)C[C@H]1c1cc(C(F)F)nc2ncnn12 : 100

###

- Assay target: Human recombinant PDE2A (hPDE2A) (Homo sapiens, UniProt O00408)
- Construct: made in house; host or cells: Sf9 insect cells (baculovirus)
- Sequence (O00408 whole entry): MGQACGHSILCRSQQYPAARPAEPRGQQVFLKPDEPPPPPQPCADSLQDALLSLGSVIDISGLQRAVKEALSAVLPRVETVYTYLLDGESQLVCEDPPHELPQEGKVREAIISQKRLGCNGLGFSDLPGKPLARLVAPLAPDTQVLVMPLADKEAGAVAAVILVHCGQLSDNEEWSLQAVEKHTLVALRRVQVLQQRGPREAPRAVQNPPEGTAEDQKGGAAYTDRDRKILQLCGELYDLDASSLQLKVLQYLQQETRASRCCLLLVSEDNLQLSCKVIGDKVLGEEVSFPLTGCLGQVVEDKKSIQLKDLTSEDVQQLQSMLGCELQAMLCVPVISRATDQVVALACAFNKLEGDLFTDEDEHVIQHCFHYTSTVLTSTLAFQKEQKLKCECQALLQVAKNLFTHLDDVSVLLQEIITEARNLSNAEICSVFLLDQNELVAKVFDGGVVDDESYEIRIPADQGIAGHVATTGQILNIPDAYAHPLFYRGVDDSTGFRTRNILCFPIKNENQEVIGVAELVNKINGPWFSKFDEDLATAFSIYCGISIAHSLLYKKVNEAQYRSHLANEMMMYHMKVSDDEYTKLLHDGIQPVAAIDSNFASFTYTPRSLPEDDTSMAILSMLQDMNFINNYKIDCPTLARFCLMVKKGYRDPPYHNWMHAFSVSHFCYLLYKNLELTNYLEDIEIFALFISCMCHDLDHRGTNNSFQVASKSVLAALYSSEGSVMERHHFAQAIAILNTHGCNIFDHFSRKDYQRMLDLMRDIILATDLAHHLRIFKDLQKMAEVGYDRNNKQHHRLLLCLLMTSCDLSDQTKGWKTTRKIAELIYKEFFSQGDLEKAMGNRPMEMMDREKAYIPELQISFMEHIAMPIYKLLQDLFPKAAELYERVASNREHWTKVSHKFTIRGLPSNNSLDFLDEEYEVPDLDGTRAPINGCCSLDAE
- Test protocol: In vitro assay PDE2A (SPA, 3H-cGMP)
- Type: biochemical
- Condition label: hPDE2A pIC50, 10 μM cGMP substrate
Readout label: pIC50
Expect pIC50 as a plain number equal to -log10 of the molar concentration.

Some compounds with known pIC50 results, for comparison:
Measured pIC50, COc1ccc(CN2CC[C@@H](C)[C@H](c3cc(C(F)F)nc4ncnn34)C2)c(OC)c1.Cl : 6.02

Measured pIC50, FC(F)c1cc(C2CCCN(Cc3cc4ccccc4o3)C2)n2ncnc2n1 (stereo not drawn) : 6.70

Measured pIC50, Cc1cc(CN2CCC(C)C(F)(c3cc(C(F)F)nc4ncnn34)C2)cc(C)n1 (stereo not drawn) : 5.53

Further cases:
Measured pIC50, Cc1cc(CN2CC[C@@H](C)[C@@](F)(c3cc(C(F)F)nc4ncnn34)C2)cc(C)n1 (single isomer, unassigned) : 5.67

Measured pIC50, Cc1cc(C(C)N2CC[C@@H](C)[C@H](c3cc(C(F)F)nc4ncnn34)C2)cc(C)n1 (single isomer, unassigned) [Compound 1a] : 6.99

Measured pIC50, C[C@@H]1CCN(Cc2cccc(N3CCCCC3)n2)C[C@H]1c1cc(C(F)F)nc2ncnn12 : 6.71

###

Below is a list of entries, each paired with its recorded Emax value.
- Assay target: hPDE10A2 (Homo sapiens, UniProt Q9Y233)
- Sequence (Q9Y233 267-1055): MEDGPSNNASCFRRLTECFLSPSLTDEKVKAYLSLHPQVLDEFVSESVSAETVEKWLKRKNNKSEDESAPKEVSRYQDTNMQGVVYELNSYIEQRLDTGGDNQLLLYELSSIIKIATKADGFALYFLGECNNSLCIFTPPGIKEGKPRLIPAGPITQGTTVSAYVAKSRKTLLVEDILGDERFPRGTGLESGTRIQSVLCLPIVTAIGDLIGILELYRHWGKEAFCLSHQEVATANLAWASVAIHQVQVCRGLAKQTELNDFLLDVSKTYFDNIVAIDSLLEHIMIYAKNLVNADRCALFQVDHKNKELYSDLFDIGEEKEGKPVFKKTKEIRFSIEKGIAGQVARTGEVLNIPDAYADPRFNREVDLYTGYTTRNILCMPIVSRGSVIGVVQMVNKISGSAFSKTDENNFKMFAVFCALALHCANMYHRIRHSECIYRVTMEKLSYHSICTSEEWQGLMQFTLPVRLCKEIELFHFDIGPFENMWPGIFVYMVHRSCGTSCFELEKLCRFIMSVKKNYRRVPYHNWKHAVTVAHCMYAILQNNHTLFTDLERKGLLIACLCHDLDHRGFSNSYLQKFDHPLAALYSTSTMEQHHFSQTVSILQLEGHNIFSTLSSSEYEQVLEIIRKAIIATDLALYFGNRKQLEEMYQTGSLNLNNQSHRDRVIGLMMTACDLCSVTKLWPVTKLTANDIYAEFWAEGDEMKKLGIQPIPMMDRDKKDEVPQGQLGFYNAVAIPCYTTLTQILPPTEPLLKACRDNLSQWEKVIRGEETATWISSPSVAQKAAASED
- Test protocol: biochemical
- Condition label: read-out: hPDE10A2 or rPDE10A2 Emax, human clone; 60 nM cAMP substrate
Note: a bare number is incomplete; add the unit.

Some compounds with known Emax results, for comparison:
Measured Emax, C[C@@H]1CCN(Cc2cn(C)c3ccccc23)C[C@H]1c1cc(C(F)F)nc2ncnn12.Cl [Compound 35] : 53%

Measured Emax, C[C@@H]1CCN(Cc2ccc(C#N)cc2)C[C@H]1c1cc(C(F)F)nc2ncnn12 [Compound 21] : 48%

Measured Emax, Cc1cc(CN2CC[C@@H](C)[C@@](F)(c3cc(C(F)F)nc4ncnn34)C2)cc(C)n1 (single isomer, unassigned) [Compound 49] : 12%

Further cases:
Measured Emax, C[C@@H]1CCN(Cc2ccc(F)c(C(F)(F)F)c2)C[C@H]1c1cc(C(F)F)nc2ncnn12 [Compound 30] : 55%

###

- Assay target: Human recombinant PDE2A (hPDE2A) (Homo sapiens, UniProt O00408)
- Construct: made in house; host or cells: Sf9 insect cells (baculovirus)
- Test protocol: In vitro assay PDE2A (SPA, 3H-cGMP)
- Type: biochemical
Readout label: pIC50
Expect pIC50 as a plain number equal to -log10 of the molar concentration.

Some compounds with known pIC50 results, for comparison:
Measured pIC50, Cc1cc(CN2CC[C@H](C)[C@@H](c3cc(C(F)F)nc4ncnn34)C2)ccn1.Cl : 5.23

Measured pIC50, C[C@@H]1CCN(Cc2cccc(OC(F)(F)F)c2)C[C@H]1c1cc(C(F)F)nc2ncnn12 : 6.16

Measured pIC50, Cc1cc(CN2CCCC(C)(c3cc(C(F)F)nc4ncnn34)C2)cc(Cl)n1 (stereo not shown) : 5.25

Further cases:
Measured pIC50, CC(C)c1ccc(CN2CC[C@@H](C)[C@H](c3cc(C(F)F)nc4ncnn34)C2)cc1 : 6.55

###

- Assay target: UniProt:Q9Y233
- Test protocol: biochemical
- Condition label: human clone; 60 nM cAMP substrate; read-out: hPDE10A2 or rPDE10A2 pIC50 (converted)
Below is a list of entries, each paired with its recorded IC50 value.

Some compounds with known IC50 results, for comparison:
Short answer on UniProt:Q9Y233 for COc1ccc(CN2CCC[C@](C)(c3cc(C(F)F)nc4ncnn34)C2)c(OC)c1.Cl (stereo in doubt) , IC50: > 10 µM

Short answer on UniProt:Q9Y233 for C[C@@H]1CCN(Cc2ccc(C#N)cc2)C[C@H]1c1cc(C(F)F)nc2ncnn12 , IC50: ~10 µM

Short answer on UniProt:Q9Y233 for Cc1nn(C)cc1CN1CC[C@@H](C)[C@H](c2cc(C(F)F)nc3ncnn23)C1.Cl , IC50: > 10 µM

Short answer on UniProt:Q9Y233 for C[C@@H]1CCN(Cc2ccc(C(F)(F)F)cc2)C[C@H]1c1cc(C(F)F)nc2ncnn12 , IC50: 6.17 µM

Attention now shifts to the item below.
Short answer on UniProt:Q9Y233 for Cl.FC(F)c1cc([C@H]2CC[C@H]3CC[C@@H]2N3Cc2ccc(Cl)c(Cl)c2)n2ncnc2n1 , IC50: 7.94 µM

###

Below is a list of entries, each paired with its recorded IC50 value.
- Assay target: UniProtKB Q9Y233
- Test protocol: biochemical
- Condition label: human clone; 60 nM cAMP substrate; read-out: hPDE10A2 or rPDE10A2 pIC50 (converted)

Short answer on UniProtKB Q9Y233 for C[C@@H]1CCN(Cc2cccc(OC(F)(F)F)c2)C[C@H]1c1cc(C(F)F)nc2ncnn12 [Compound 24] , IC50: 7.24 µM

Short answer on UniProtKB Q9Y233 for C[C@@H]1CCN(Cc2cn(C)c3ccccc23)C[C@H]1c1cc(C(F)F)nc2ncnn12.Cl [Compound 35] , IC50: 7.59 µM

Short answer on UniProtKB Q9Y233 for C[C@H]1CCN(Cc2ccc(F)c(F)c2)C[C@@H]1c1cc(C(F)F)nc2ncnn12.Cl [Compound 41] , IC50: > 10 µM

Attention now shifts to the item below.
Short answer on UniProtKB Q9Y233 for COc1ccc(CN2CC[C@@H](C)[C@H](c3cc(C(F)F)nc4ncnn34)C2)c(OC)c1.Cl [Compound 45] , IC50: > 10 µM

Measured values drawn from patent US11319321B2 for this set.
